Tested on: ECAC2 mRNA in Caco-2 cells
Type: cell-based
Just a reminder that ties go to class 0: only ECaC-2 mRNA induction activity in Caco-2 cells strictly below 500% counts as class 1.

>  <COMPOUND>
CCC(O)(/C=C/c1ccc(C(CC)(CC)c2ccc(OCCCCC(=O)O)c(C)c2)cc1C)CC

>  <SYSTEM>
ECAC2 mRNA in Caco-2 cells

>  <ASSIGNED CATEGORY>
class 1

$$$$
>  <COMPOUND>
CCC(CC)(c1ccc(/C=C/C(O)(C(F)(F)F)C(F)(F)F)c(C)c1)c1ccc(OC[C@@H](O)CCC(=O)O)c(C)c1

>  <SYSTEM>
ECAC2 mRNA in Caco-2 cells

>  <ASSIGNED CATEGORY>
class 0

$$$$
>  <COMPOUND>
CCC(CC)(c1ccc(/C=C/C(O)(C(F)(F)F)C(F)(F)F)c(C)c1)c1ccc(OC[C@H](O)CCCO)c(C)c1

>  <SYSTEM>
ECAC2 mRNA in Caco-2 cells

>  <ASSIGNED CATEGORY>
class 0

$$$$
>  <COMPOUND>
CCC(O)(/C=C/c1ccc(C(CC)(CC)c2ccc(OC[C@@H](O)CO)c(C)c2)cc1C)CC

>  <SYSTEM>
ECAC2 mRNA in Caco-2 cells

>  <ASSIGNED CATEGORY>
class 1

$$$$
>  <COMPOUND>
CCc1cc(C(CC)(CC)c2ccc(C(=O)N[C@H](C)C(=O)O)s2)ccc1OCC(C)(O)C(C)(C)C (single isomer, unassigned) [Compound B, reference compound]

>  <SYSTEM>
ECAC2 mRNA in Caco-2 cells

>  <ASSIGNED CATEGORY>
class 1

$$$$
>  <COMPOUND>
CCC(CC)(c1ccc(C#CC(O)(C(F)(F)F)C(F)(F)F)c(C)c1)c1ccc(OC[C@@H]2CCCC(=O)O2)c(C)c1

>  <SYSTEM>
ECAC2 mRNA in Caco-2 cells

>  <ASSIGNED CATEGORY>
class 1

$$$$
>  <COMPOUND>
CCC(CC)(c1ccc(CCC(O)C(C)(C)C)c(C)c1)c1ccc(OCCCCCN)c(C)c1 (centres unmarked)

>  <SYSTEM>
ECAC2 mRNA in Caco-2 cells

>  <ASSIGNED CATEGORY>
class 1

$$$$
>  <COMPOUND>
CCC(CC)(c1ccc(/C=C/C(O)(C(F)(F)F)C(F)(F)F)c(C)c1)c1ccc(OC[C@H](O)CCCC(=O)O)c(C)c1

>  <SYSTEM>
ECAC2 mRNA in Caco-2 cells

>  <ASSIGNED CATEGORY>
class 1

$$$$
>  <COMPOUND>
CCC(CC)(c1ccc(CCC(O)C(C)(C)C)c(C)c1)c1ccc(OC[C@@H](O)CCCC(=O)O)c(C)c1 (some centres unmarked) [Example 187]

>  <SYSTEM>
ECAC2 mRNA in Caco-2 cells

>  <ASSIGNED CATEGORY>
class 0

$$$$
>  <COMPOUND>
CCC(CC)(c1ccc(/C=C/C(O)C(C)(C)C)c(C)c1)c1ccc(OCC(CO)CO)c(C)c1 (centres unmarked)

>  <SYSTEM>
ECAC2 mRNA in Caco-2 cells

>  <ASSIGNED CATEGORY>
class 1

$$$$
>  <COMPOUND>
CCC(CC)(c1ccc(/C=C/C(O)(C(F)(F)F)C(F)(F)F)c(C)c1)c1ccc(OC[C@@H](O)CCCC(=O)O)c(C)c1

>  <SYSTEM>
ECAC2 mRNA in Caco-2 cells

>  <ASSIGNED CATEGORY>
class 1

$$$$
>  <COMPOUND>
CCC(CC)(c1ccc(/C=C/C(O)(C(F)(F)F)C(F)(F)F)c(C)c1)c1ccc(OC[C@H]2CCCO2)c(C)c1

>  <SYSTEM>
ECAC2 mRNA in Caco-2 cells

>  <ASSIGNED CATEGORY>
class 1

$$$$
>  <COMPOUND>
CCC(CC)(c1ccc(/C=C/C(O)C(C)(C)C)c(C)c1)c1ccc(OC[C@@H](O)CO)c(C)c1 (some centres unmarked)

>  <SYSTEM>
ECAC2 mRNA in Caco-2 cells

>  <ASSIGNED CATEGORY>
class 0

$$$$
>  <COMPOUND>
CCC(CC)(c1ccc(/C=C/C(O)(C(F)(F)F)C(F)(F)F)c(C)c1)c1ccc(CCC(=O)O)c(C)c1

>  <SYSTEM>
ECAC2 mRNA in Caco-2 cells

>  <ASSIGNED CATEGORY>
class 0

$$$$

Reference source: patent US20060025474A1
